Tested on: rCHIKV G230R + K299E
Format: cell-based, Chikungunya virus
Settings: CPE reduction assay, Vero E6 cells
pEC50: −log10 of the molar value.
Listing: pEC50 of selected molecules

[
  {
    "molecule": "CCNc1nc(C)cc(N2CCN(C(=O)c3ccc(F)cc3)CC2)n1",
    "qualifyingSign": "=",
    "pEC50": 5.47
  },
  {
    "molecule": "CCNc1nc(C)cc(N2CCN(C(=O)c3ccc(C)cc3)CC2)n1",
    "qualifyingSign": "=",
    "pEC50": 6.52
  },
  {
    "molecule": "CCC1=NC2C(N=NN2c2cccc(OC(C)C)c2)C(=O)N1 (stereo not drawn)",
    "qualifyingSign": "=",
    "pEC50": 5.92
  },
  {
    "molecule": "Nc1ncnc2c1ncn2[C@@H]1O[C@H](C[C@@H](N)CC[C@H](N)C(=O)O)[C@@H](O)[C@H]1O [Sinefungin, reference compound]",
    "qualifyingSign": "=",
    "pEC50": 3.56
  },
  {
    "molecule": "Nc1ncnc2c1ncn2C1C(F)=C(CCO)C(O)C1O (stereo not drawn)",
    "qualifyingSign": "<",
    "pEC50": 5.00
  },
  {
    "molecule": "NC(=O)c1nc(F)c[nH]c1=O [Favipiravir, reference compound]",
    "qualifyingSign": "=",
    "pEC50": 3.87
  }
]
